Measured target: Aurora-A(h) (Homo sapiens, UniProt O14965)
Sequence (O14965 whole entry): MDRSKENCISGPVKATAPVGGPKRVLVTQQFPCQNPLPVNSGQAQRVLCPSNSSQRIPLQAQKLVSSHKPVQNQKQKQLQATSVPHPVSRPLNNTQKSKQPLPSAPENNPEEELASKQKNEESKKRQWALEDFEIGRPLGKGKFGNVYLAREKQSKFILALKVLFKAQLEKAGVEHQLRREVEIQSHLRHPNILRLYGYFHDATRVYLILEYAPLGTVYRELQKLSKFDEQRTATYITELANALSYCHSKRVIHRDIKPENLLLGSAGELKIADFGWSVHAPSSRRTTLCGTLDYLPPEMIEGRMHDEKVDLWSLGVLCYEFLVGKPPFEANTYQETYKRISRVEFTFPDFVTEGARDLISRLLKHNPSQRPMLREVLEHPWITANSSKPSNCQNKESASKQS
Assay protocol: KinaseProfiler kinase assay
Type: biochemical
Cond: read-out: % Inhibition @1 μM Auroro-A
Measured metric: inhibition at 1 µM (%)

Cc1cc2c(F)c(Oc3nc(Nc4cc(C5CC5)[nH]n4)cc(N4CCN(C)CC4)n3)ccc2[nH]1    99
Cc1cc2c(F)c(Oc3nc(Nc4cc(C5CC5)[nH]n4)cc(N4CCC(F)CC4)n3)ccc2[nH]1    101
Cc1cc(Nc2cc(N3CCNCC3)nc(Oc3cc(F)c4[nH]c(C)cc4c3F)n2)n[nH]1    97
Cc1cc2c(F)c(Oc3nc(Nc4cc(C5CC5)[nH]n4)cc(N4CCNCC4)n3)ccc2[nH]1    100
Cc1cc2c(F)c(Oc3nc(Nc4cc(C5CC5)[nH]n4)cc(N4CCN(S(C)(=O)=O)CC4)n3)ccc2[nH]1    101
Cc1cc2c(F)c(Oc3nc(Nc4cc(C5CC5)[nH]n4)cc(N4CCN(C)CC4)n3)cc(F)c2[nH]1    99
C/C=C/c1cc(Nc2cc(N3CCN(C)CC3)nc(Oc3ccc4[nH]c(C)cc4c3F)n2)n[nH]1    97
C/C=C/c1cc(Nc2cc(N3CCN(S(C)(=O)=O)CC3)nc(Oc3ccc4[nH]c(C)cc4c3F)n2)n[nH]1    101
COC1CCN(c2cc(Nc3cc(C4CC4)[nH]n3)nc(Oc3ccc4[nH]c(C)cc4c3F)n2)C1 (centres unmarked)    101
C/C=C/c1cc(Nc2cc(N3CCOCC3)nc(Oc3ccc4c(cc(C)n4C)c3F)n2)n[nH]1    91
CC(=O)N1CCN(c2cc(Nc3cc(C4CC4)[nH]n3)nc(Oc3ccc4[nH]c(C)cc4c3F)n2)CC1    100
CCN1CCN(c2cc(Nc3cc(C4CC4)[nH]n3)nc(Oc3ccc4[nH]c(C)cc4c3F)n2)CC1    101
Cc1cc2c(F)c(Oc3nc(Nc4cc(C5CC5)[nH]n4)cc(N4CCNC(CO)C4)n3)ccc2[nH]1 (centres unmarked)    87
Cc1cc2c(F)c(Oc3nc(Nc4cc(C5CC5)[nH]n4)cc(N4CCOC(CN(C)C)C4)n3)ccc2[nH]1 (centres unmarked)    100
Cc1cc2c(F)c(Oc3nc(Nc4cc(C5CC5)[nH]n4)cc(N4CCOC(CN)C4)n3)ccc2[nH]1 (centres unmarked)    98
C/C=C/c1cc(Nc2cc(N3CCN(S(C)(=O)=O)CC3)nc(Oc3cc(F)c4[nH]c(C)cc4c3F)n2)n[nH]1    98
Cc1cc2c(F)c(Oc3nc(Nc4cc(C5CC5)[nH]n4)cc(N4CCN(C)CC4)n3)ccc2n1C    101
C/C=C/c1cc(Nc2cc(N3CCN(C)CC3)nc(Oc3ccc4c(cc(C)n4C)c3F)n2)n[nH]1    101
C/C=C/c1cc(Nc2cc(N3CCC(O)C3)nc(Oc3cc(F)c4[nH]c(C)cc4c3F)n2)n[nH]1 (centres unmarked)    100
C/C=C/c1cc(Nc2cc(N3CCC(OC)C3)nc(Oc3ccc4[nH]c(C)cc4c3F)n2)n[nH]1 (centres unmarked)    97
C/C=C/c1cc(Nc2cc(N3CCC(N(CC)CC)C3)nc(Oc3ccc4[nH]c(C)cc4c3F)n2)n[nH]1 (centres unmarked)    102
C/C=C/c1cc(Nc2cc(N3CCC(O)CC3)nc(Oc3ccc4[nH]c(C)cc4c3F)n2)n[nH]1    94
COCC1CCN(c2cc(Nc3cc(C4CC4)[nH]n3)nc(Oc3ccc4[nH]c(C)cc4c3F)n2)C1 (centres unmarked)    97
C/C=C/c1cc(Nc2cc(N3CCC(O)CC3)nc(Oc3cc(F)c4[nH]c(C)cc4c3F)n2)n[nH]1    100
CCN1CCN(c2cc(Nc3cc(C)[nH]n3)nc(Oc3cc(F)c4[nH]c(C)cc4c3F)n2)CC1    97
Cc1cc2c(F)c(Oc3nc(Nc4cc(C5CC5)[nH]n4)cc(N4CCNC(=O)C4)n3)ccc2[nH]1    100
Cc1cc(Nc2cc(N3CCOCC3)nc(Oc3cc(F)c4[nH]c(C)cc4c3F)n2)n[nH]1    95
C/C=C/c1cc(Nc2cc(N3CCC(OC)C3)nc(Oc3cc(F)c4[nH]c(C)cc4c3F)n2)n[nH]1 (centres unmarked)    102
C/C=C/c1cc(Nc2cc(N3CCNCC3)nc(Oc3cc(F)c4[nH]c(C)cc4c3F)n2)n[nH]1    100

* * *

Measured target: FGFR2(h) (Homo sapiens, UniProt P21802)
Sequence (P21802 22-821): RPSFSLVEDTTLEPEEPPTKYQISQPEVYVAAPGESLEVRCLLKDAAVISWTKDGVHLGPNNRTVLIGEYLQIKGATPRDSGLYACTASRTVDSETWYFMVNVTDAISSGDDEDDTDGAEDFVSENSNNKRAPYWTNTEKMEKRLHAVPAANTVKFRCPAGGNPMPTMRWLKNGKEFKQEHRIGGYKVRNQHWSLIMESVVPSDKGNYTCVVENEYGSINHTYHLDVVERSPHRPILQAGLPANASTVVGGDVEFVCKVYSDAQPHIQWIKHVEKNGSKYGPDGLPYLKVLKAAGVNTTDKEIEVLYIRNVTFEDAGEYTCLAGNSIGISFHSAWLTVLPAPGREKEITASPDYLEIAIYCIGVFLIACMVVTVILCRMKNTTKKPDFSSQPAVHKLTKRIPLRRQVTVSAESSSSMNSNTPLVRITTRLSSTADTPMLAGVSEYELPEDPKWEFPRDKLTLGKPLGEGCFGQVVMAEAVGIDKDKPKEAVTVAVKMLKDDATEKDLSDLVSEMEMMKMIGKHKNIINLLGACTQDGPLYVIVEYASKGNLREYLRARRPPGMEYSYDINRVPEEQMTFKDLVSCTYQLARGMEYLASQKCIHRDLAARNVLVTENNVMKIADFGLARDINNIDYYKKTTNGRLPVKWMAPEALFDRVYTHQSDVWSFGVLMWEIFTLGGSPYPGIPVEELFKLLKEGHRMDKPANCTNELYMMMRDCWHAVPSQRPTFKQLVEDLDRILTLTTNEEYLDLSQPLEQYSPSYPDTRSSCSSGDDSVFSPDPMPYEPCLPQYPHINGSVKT
Measured metric: IC50 (nM)
Give the value, in units of nM, as a plain number.

I'd like to know its IC50. The compound in question is C/C=C/c1cc(Nc2cc(N3CCN(C)CC3)nc(Oc3ccc4[nH]c(C)cc4c3F)n2)n[nH]1
2

* * *

Measured target: FGFR4(h) (Homo sapiens)
Sequence (P22455 22-802): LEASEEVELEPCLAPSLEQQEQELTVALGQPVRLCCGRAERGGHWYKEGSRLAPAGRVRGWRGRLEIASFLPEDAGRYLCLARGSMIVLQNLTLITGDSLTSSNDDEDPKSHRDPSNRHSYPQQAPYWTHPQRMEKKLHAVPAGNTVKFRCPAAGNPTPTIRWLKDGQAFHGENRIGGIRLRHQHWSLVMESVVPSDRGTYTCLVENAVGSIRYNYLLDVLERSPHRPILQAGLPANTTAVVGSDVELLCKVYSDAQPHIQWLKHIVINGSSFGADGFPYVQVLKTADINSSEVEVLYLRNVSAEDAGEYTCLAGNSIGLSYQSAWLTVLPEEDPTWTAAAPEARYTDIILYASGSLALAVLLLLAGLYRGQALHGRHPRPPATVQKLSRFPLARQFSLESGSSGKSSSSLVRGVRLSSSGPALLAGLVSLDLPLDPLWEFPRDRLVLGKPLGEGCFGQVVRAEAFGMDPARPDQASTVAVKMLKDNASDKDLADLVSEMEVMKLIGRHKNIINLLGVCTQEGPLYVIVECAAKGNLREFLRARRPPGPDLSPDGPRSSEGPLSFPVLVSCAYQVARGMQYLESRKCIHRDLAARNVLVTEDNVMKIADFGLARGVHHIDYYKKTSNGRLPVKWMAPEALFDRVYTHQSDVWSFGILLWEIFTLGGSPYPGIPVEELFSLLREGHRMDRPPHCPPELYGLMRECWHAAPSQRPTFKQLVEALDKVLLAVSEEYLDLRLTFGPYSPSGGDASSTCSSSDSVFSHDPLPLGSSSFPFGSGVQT
Measured metric: IC50 (µM)
Give the value, in units of µM, as a plain number.

FGFR4(h) (Homo sapiens) / IC50 / C/C=C/c1cc(Nc2cc(N3CCN(C)CC3)nc(Oc3ccc4[nH]c(C)cc4c3F)n2)n[nH]1 : value?
0.013

* * *

Measured target: Ret(h) (Homo sapiens, UniProt P07949)
Sequence (P07949 29-1114): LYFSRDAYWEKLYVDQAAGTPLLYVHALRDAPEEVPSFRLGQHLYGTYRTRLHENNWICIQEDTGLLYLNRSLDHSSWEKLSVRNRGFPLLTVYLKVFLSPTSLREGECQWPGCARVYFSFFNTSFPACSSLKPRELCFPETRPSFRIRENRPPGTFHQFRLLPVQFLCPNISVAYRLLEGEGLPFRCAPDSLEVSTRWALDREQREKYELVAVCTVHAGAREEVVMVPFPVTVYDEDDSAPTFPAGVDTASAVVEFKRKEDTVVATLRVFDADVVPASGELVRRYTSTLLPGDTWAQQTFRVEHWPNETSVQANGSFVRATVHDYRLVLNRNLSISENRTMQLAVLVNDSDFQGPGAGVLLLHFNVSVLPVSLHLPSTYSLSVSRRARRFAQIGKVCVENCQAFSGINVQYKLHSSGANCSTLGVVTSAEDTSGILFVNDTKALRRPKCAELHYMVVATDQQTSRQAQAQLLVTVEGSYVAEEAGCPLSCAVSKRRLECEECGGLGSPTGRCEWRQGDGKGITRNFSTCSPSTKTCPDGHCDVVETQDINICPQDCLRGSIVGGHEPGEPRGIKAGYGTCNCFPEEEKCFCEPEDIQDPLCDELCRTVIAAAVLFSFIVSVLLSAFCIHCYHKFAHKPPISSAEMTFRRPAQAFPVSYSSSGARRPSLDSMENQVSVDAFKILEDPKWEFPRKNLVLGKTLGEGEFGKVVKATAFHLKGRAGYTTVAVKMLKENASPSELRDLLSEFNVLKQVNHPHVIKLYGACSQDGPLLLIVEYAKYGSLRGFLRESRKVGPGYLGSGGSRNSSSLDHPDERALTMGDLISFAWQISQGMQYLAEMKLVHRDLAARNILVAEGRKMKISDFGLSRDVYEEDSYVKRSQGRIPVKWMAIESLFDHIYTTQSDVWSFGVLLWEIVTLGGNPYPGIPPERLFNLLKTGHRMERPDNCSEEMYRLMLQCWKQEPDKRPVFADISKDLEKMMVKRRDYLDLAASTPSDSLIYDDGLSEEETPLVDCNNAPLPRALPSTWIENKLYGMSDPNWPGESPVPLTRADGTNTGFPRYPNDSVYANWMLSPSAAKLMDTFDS
Assay protocol: KinaseProfiler kinase assay
Format: biochemical
Measured metric: inhibition at 1 µM (%)

C/C=C/c1cc(Nc2cc(N3CCN(CC)CC3)nc(Oc3cc(F)c4[nH]c(C)cc4c3F)n2)n[nH]1 [Compound 99]    102
C/C=C/c1cc(Nc2cc(N3CCC(OC)CC3)nc(Oc3cc(F)c4[nH]c(C)cc4c3F)n2)n[nH]1 [Compound 96]    102
COC1CCN(c2cc(Nc3cc(C4CC4)[nH]n3)nc(Oc3ccc4[nH]c(C)cc4c3F)n2)C1 (stereo not shown) [Compound 16]    101
Cc1cc2c(F)c(Oc3nc(Nc4cc(C5CC5)[nH]n4)cc(N4CCOCC4)n3)cc(F)c2[nH]1 [Compound 84]    100

* * *

Measured target: FGFR1(h) (Homo sapiens, UniProt P11362)
Sequence (P11362 22-822): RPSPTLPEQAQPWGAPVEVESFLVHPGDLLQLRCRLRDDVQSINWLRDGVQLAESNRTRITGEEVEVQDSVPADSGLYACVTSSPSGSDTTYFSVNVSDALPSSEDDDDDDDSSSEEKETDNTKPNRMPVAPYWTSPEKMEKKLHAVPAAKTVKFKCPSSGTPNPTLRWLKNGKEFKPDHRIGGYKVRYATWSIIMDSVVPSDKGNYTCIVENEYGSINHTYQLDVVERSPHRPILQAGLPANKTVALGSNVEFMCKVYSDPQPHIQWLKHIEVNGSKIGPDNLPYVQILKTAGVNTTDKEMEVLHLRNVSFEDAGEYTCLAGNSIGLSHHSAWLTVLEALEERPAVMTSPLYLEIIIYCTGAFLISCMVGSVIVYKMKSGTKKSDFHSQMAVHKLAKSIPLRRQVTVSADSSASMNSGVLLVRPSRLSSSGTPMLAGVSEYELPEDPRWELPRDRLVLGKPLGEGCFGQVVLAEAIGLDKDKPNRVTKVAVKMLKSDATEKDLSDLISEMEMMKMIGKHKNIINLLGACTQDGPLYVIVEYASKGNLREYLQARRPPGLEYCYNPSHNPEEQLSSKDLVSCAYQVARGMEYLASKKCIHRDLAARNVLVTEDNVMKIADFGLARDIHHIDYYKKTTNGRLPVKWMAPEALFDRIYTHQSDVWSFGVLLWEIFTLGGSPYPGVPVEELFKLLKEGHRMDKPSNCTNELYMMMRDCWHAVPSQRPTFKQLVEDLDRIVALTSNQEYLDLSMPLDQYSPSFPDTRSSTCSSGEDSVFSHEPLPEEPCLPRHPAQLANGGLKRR
Assay protocol: KinaseProfiler kinase assay
Assay type: biochemical
Cond: FGFR1; read-out: IC50
Experimental: This example tests the inhibitory properties of representative compounds of the invention in c-Src kinase, Aurora-A kinase, Flt3 kinase, Ret kinase and TrkA Kinase assays (see, Daniele Fancelli et al, J. Med. Chem., 2006, 49 (24), pp 7247-7251). […] The Kinase Hotspot℠ kinase assay was also used to test the compounds for IC50 or % inhibitions (Reaction Biology Corp.). Inhibitory IC50 values were determined by titration of compound at the optimal kinase concentration (Kinase EC50).
Measured metric: pIC50
# pIC50 = -log10(concentration in molar units)

I'd like to know its pIC50. The molecule in question is C/C=C/c1cc(Nc2cc(N3CCN(C)CC3)nc(Oc3ccc4[nH]c(C)cc4c3F)n2)n[nH]1
9.30

* * *

Measured target: Flt3(h) (Homo sapiens)
Sequence (P36888 27-993): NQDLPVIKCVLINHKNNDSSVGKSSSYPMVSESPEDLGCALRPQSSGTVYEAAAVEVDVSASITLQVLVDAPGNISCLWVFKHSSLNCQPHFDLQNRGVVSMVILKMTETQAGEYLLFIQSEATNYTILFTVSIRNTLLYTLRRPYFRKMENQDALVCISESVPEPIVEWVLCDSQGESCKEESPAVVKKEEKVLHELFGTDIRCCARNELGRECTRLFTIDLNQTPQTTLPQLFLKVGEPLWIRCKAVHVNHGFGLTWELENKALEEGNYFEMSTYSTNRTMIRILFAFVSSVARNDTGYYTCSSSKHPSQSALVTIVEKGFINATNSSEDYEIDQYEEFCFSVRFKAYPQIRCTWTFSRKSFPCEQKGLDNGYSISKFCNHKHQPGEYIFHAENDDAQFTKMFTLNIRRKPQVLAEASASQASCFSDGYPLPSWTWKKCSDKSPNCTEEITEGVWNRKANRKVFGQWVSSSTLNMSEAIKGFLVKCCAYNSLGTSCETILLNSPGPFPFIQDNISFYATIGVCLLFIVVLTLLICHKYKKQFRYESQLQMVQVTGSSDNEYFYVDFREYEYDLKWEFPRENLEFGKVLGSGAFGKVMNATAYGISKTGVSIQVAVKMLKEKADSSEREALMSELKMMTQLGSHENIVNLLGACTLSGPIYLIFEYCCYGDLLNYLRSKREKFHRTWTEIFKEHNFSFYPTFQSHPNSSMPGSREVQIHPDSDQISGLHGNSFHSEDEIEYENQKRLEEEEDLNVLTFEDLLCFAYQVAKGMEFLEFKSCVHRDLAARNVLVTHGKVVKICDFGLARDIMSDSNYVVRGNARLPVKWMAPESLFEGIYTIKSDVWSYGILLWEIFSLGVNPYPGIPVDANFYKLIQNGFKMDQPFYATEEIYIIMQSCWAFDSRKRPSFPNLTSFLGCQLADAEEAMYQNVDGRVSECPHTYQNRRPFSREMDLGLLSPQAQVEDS
Assay protocol: KinaseProfiler kinase assay
Type: biochemical
Measured metric: inhibition at 1 µM (%)

C/C=C/c1cc(Nc2cc(N3CCN(CC)CC3)nc(Oc3cc(F)c4[nH]c(C)cc4c3F)n2)n[nH]1 [Compound 99]    102
C/C=C/c1cc(Nc2cc(N3CCN(C)CC3)nc(Oc3ccc4c(cc(C)n4C)c3F)n2)n[nH]1 [Compound 120]    101
C/C=C/c1cc(Nc2cc(N3CCC(O)C3)nc(Oc3cc(F)c4[nH]c(C)cc4c3F)n2)n[nH]1 (centres unmarked) [Compound 92]    100
C/C=C/c1cc(Nc2cc(N3CCN(C)CC3)nc(Oc3ccc4[nH]c(C)cc4c3F)n2)n[nH]1 [Compound 53]    99
C/C=C/c1cc(Nc2cc(N3CCC(OC)CC3)nc(Oc3ccc4[nH]c(C)cc4c3F)n2)n[nH]1 [Compound 58]    99

* * *

Measured target: Abl (H396P) (h) (Homo sapiens, UniProt P00519, H396P)
Assay protocol: KinaseProfiler kinase assay
Cond: Abl (H396P)
Measured metric: IC50

Abl (H396P) (h) (Homo sapiens, UniProt P00519, H396P) / IC50 / C/C=C/c1cc(Nc2cc(N3CCN(C)CC3)nc(Oc3ccc4[nH]c(C)cc4c3F)n2)n[nH]1 [Compound 53] : value?
< 0.1 nM

* * *

Measured target: KDR(h) (Homo sapiens, UniProt P35968)
Assay protocol: KinaseProfiler kinase assay
Format: biochemical
Cond: read-out: IC50 (nM) KDR (h)
Measured metric: IC50 (nM)

Cc1cc2c(F)c(Oc3nc(Nc4cc(C5CC5)[nH]n4)cc(N4CCNCC4)n3)cc(F)c2[nH]1    11
Cc1cc2c(F)c(Oc3nc(Nc4cc(C5CC5)[nH]n4)cc(N4CCNCC4)n3)ccc2[nH]1    12
C/C=C/c1cc(Nc2cc(N3CCNCC3)nc(Oc3ccc4[nH]c(C)cc4c3F)n2)n[nH]1    12
C/C=C/c1cc(Nc2cc(N3CCN(CCO)CC3)nc(Oc3cc(F)c4[nH]c(C)cc4c3F)n2)n[nH]1    44
